B1: Ribonuclease, P00648 (parent)
chain: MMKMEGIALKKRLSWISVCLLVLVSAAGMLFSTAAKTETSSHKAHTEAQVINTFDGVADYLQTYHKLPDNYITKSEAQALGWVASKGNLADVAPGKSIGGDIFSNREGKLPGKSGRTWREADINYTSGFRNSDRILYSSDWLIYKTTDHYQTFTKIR

# Variants of: B1
# CONDITION CONTEXT: Bacillus amyloliquefaciens; pH 6.3; 25 °C; Urea; Fluorescence; MES 50 mM; reversible: yes; structure 1BNI; whole UniProt chain shown
Item-by-item account of denaturant m value

VARIANT	denaturant m value (kcal/mol/M)
D55A	2.15
D55A R157A	1.96
D59A R157A	2.14
D55A D59A R157A	2.16
R157A	2.26
D55A D59A	1.98
D59A	2.12
